meta.source: ChEMBL document CHEMBL3351928

ASSAY PROCEDURE: Half life in rat at 10 mg/kg, po
Type: ADME, organism-based
Set-up: dose 10 mg/kg, route oral
CONDITION INFO: in vivo
MEASURE NAME: half-life (h)
Respond with the bare value in h.

Lab note: measured half-life of CC(=O)N1CCC(c2nccnc2Oc2ccc(C(=O)c3nc4ccccc4[nH]3)cc2)CC1 was 3.35

Lab note: measured half-life of O=C(c1ccc(Oc2nccnc2C2CCOCC2)cc1)c1nc2ccccc2[nH]1 was 3.99

Lab note: measured half-life of CC(=O)N1CCC(c2cccnc2Oc2ccc(C(=O)c3nc4ccccc4[nH]3)cc2)CC1 was 1.72
